Target: T1, human MOG (hMOG) expressed on HEK293, Expi293F or L929 cells (human, UniProt Q16653 30-247)
T1 construct: also called hMOG/HEK293; hMOG/HEK293F
T1 chain: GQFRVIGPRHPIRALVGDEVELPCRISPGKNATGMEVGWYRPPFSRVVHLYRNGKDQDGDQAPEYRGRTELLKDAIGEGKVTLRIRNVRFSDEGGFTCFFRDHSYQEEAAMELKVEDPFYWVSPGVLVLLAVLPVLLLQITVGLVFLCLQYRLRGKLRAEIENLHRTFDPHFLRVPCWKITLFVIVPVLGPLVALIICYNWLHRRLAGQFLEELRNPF
Test: phage clone on hMOG/Expi293F cells
reported.metric: binding result

binder	observed
MOG338 (scFv phage clone similar to MOG310 antibody) (scFv) scFv: QVQLVQSGAEVKKPGSSVKVSCKASGGTFSRYAISWVRQAPGQGLEWMGGIIPMFNTANYAQKFQGRVTITADESTSTAYMELSSLRSEDTAVYYCARDWAVAGMGFDPWGQGTLVTVSSGGGGSGGRASGGGGSEIVLTQSPATLSLSPGERATLSCRASQSVSSYLAWYQQKPGQAPRLLIYDASNRATGIPARFSGSGSGTDFTLTISSLEPEDFAVYYCQQRNNWPLTFGGGTKLEIK	binds
